# target or test system: (recombinant) catalytic domain of human Bub1 (amino acids 704-1085) (Homo sapiens (Human))
# method summary: Bub1 kinase assay (TR-FRET)
# cond: ATP 10 μM final, peptide substrate 1 μM final, 60 min at 22° C., read-out: Biological Assay: Bub1 kinase assay median IC50
measured parameter: pIC50
Scale for pIC50: -log10 of concentration given in mol/L; no unit attached.

CC1(C)OC[C@H](CNc2cc(-c3[nH]c4c(c3Nc3ccccc3)C(=O)CCC4)ccn2)O1 [Example 370] : 5.89
COc1cccc(Nc2c(-c3ccncc3)[nH]c3c2C(=O)CC(C)(C)C3)c1OC [Example 56] : 6.18
Nc1cc(-c2[nH]c3c(c2Nc2ccccc2)C(=O)CCC3)ccn1 [Example 139] : 6.95
CC1(C)CC(=O)c2c([nH]c(-c3ccnc(NCc4cncs4)c3)c2Nc2ccccc2)C1 [Example 508] : 6.71
CC1(C)CC(=O)c2c([nH]c(-c3ccncc3)c2Nc2ccc(C#N)cc2)C1 [Example 433] : 5.53
Cc1cc(F)cc(Nc2c(-c3ccncc3)[nH]c3c2C(=O)CC(C)(C)C3)c1 [Example 14] : 7.97
Cc1ccc(F)c(Nc2c(-c3ccncc3)[nH]c3c2C(=O)CC(C)(C)C3)c1 [Example 82] : 6.29

Turning to the following compound.
[ask] Param readout = pIC50; param system = (recombinant) catalytic domain of human Bub1 (amino acids 704-1085) (Homo sapiens (Human)); param query = CC1(C)CC(=O)c2c([nH]c(-c3ccncc3)c2Nc2cccc(C(N)=O)c2)C1 [Example 101] ; response: value
[reply] 6.29

---

# target or test system: (recombinant) catalytic domain of human Bub1 (amino acids 704-1085) (Homo sapiens (Human))
# method summary: Bub1 kinase assay (TR-FRET)
# cond: ATP 10 μM final, peptide substrate 1 μM final, 60 min at 22° C., read-out: Biological Assay: Bub1 kinase assay median IC50
# Method: Examples were tested in selected biological assays one or more times. When tested more than once, data are reported as either average values or as median values, wherein • the average value, also referred to as the arithmetic mean value, represents the sum of the values obtained divided by the number of times tested, and • the median value represents the middle number of the group of values when ranked in ascending or descending order. […]
measured parameter: pIC50
Scale for pIC50: -log10 of concentration given in mol/L; no unit attached.

[ask] Param readout = pIC50; param system = (recombinant) catalytic domain of human Bub1 (amino acids 704-1085) (Homo sapiens (Human)); param query = CC1(C)CC(=O)c2c([nH]c(-c3ccnc(N)c3)c2Nc2cccc(Br)c2)C1 ; response: value
[reply] 6.94

[ask] Param readout = pIC50; param system = (recombinant) catalytic domain of human Bub1 (amino acids 704-1085) (Homo sapiens (Human)); param query = Cc1ncsc1COCC(=O)Nc1cc(-c2[nH]c3c(c2Nc2ccccc2)C(=O)CCC3)ccn1 ; response: value
[reply] 8.19

[ask] Param readout = pIC50; param system = (recombinant) catalytic domain of human Bub1 (amino acids 704-1085) (Homo sapiens (Human)); param query = Nc1cc(-c2[nH]c3c(c2Nc2ccc(F)cc2)C(=O)CCC3)ccn1 ; response: value
[reply] 6.94

[ask] Param readout = pIC50; param system = (recombinant) catalytic domain of human Bub1 (amino acids 704-1085) (Homo sapiens (Human)); param query = O=C(CCc1ccccc1)Nc1cc(-c2[nH]c3c(c2Nc2ccccc2)C(=O)CCC3)ccn1 ; response: value
[reply] 7.21

[ask] Param readout = pIC50; param system = (recombinant) catalytic domain of human Bub1 (amino acids 704-1085) (Homo sapiens (Human)); param query = CC1(C)CC(=O)c2c([nH]c(-c3ccnc(C(F)F)c3)c2Nc2cccc(F)c2)C1 ; response: value
[reply] 6.51

---

# target or test system: (recombinant) catalytic domain of human Bub1 (amino acids 704-1085) (Homo sapiens (Human), UniProt O43683)
# Sequence (O43683 704-1085): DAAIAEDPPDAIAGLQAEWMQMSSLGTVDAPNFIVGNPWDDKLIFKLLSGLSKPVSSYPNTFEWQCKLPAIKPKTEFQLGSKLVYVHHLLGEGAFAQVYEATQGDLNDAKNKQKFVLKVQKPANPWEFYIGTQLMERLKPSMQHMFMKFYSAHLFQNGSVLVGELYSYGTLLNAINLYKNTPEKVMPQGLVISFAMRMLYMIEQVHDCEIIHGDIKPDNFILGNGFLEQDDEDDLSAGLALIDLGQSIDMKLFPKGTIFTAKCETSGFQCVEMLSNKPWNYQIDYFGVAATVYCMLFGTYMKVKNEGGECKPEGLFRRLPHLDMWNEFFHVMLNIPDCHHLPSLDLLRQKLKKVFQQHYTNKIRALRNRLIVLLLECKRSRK
# method summary: Bub1 kinase assay (TR-FRET)
# cond: ATP 10 μM final, peptide substrate 1 μM final, 60 min at 22° C., read-out: Biological Assay: Bub1 kinase assay median IC50
# Experimental: Examples were tested in selected biological assays one or more times. When tested more than once, data are reported as either average values or as median values, wherein • the average value, also referred to as the arithmetic mean value, represents the sum of the values obtained divided by the number of times tested, and • the median value represents the middle number of the group of values when ranked in ascending or descending order. […]
measured parameter: pIC50
Scale for pIC50: -log10 of concentration given in mol/L; no unit attached.

O=C(COc1ccc(F)cc1)Nc1cc(-c2[nH]c3c(c2Nc2ccccc2)C(=O)CCC3)ccn1 : 7.74
CC(C)(CF)C(=O)Nc1cc(-c2[nH]c3c(c2Nc2ccccc2)C(=O)CCC3)ccn1 : 6.85
CC(C)CC1CC(=O)c2c([nH]c(-c3ccncc3)c2Nc2ccccc2)C1 (stereo not shown) : 8.21
CC1(C)CC(=O)c2c(Nc3ccccc3)c(-c3ccncc3)n(CC(F)(F)F)c2C1 : 6.70
CC1(C)CC1C(=O)Nc1cc(-c2[nH]c3c(c2Nc2ccccc2)C(=O)CCC3)ccn1 (stereo not shown) : 7.46

[ask] What value of measured pIC50 is listed for CC1(C)CC(=O)c2c([nH]c(-c3ccncc3)c2Nc2ccccc2C#N)C1 ?
[reply] 7.32

[ask] What value of measured pIC50 is listed for CC1(C)CC(=O)c2c([nH]c(-c3ccncc3)c2Nc2ccc(F)c(OC(F)(F)F)c2)C1 ?
[reply] 6.32

---

# target or test system: (recombinant) catalytic domain of human Bub1 (amino acids 704-1085) (Homo sapiens (Human))
# method summary: Bub1 kinase assay (TR-FRET)
# cond: ATP 10 μM final, peptide substrate 1 μM final, 60 min at 22° C., read-out: Biological Assay: Bub1 kinase assay median IC50
measured parameter: pIC50
Scale for pIC50: -log10 of concentration given in mol/L; no unit attached.

O=C1CC2(CCC2)Cc2[nH]c(-c3ccncc3)c(Nc3ccccc3)c21 : 8.18
CNC(=S)Nc1cc(-c2[nH]c3c(c2Nc2ccccc2)C(=O)CCC3)ccn1 : 7.06
Cc1cccc(Nc2c(-c3ccncc3)[nH]c3c2C(=O)CC(C)(C)C3)c1CO : 8.02
CC1(C)CC(=O)c2c([nH]c(-c3ccncc3)c2Nc2ccccc2Cl)C1 : 7.16
O=C1CCCc2[nH]c(-c3ccncc3)c(Nc3ccccn3)c21 : 7.44

[ask] What value of measured pIC50 is listed for O=C(NCC(F)(F)F)Nc1cc(-c2[nH]c3c(c2Nc2ccccc2)C(=O)CCC3)ccn1 ?
[reply] 7.08
